The measurements presented in this section are drawn from patent US20250170130A1.

Property: Dmax at 1 µM; scope: individual compounds
# experimental_target: MycN (Homo sapiens)
# Construct: endogenous in cells; host or cells: SK-N-BE(2)
# Sequence (P04198 1-464): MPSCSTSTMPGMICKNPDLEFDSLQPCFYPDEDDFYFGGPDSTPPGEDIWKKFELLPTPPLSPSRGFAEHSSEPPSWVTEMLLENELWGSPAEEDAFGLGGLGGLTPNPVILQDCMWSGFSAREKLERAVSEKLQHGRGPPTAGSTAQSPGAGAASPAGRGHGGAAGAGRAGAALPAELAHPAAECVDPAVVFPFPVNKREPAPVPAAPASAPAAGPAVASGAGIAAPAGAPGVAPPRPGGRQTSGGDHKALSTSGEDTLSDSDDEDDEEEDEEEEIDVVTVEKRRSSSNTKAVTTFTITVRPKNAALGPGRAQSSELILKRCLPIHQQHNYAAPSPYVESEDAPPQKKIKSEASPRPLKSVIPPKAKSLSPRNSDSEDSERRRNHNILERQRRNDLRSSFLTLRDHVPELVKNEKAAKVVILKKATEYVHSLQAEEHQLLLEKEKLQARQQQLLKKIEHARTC
# assay_details: Degradation of MycN protein in SK-N-BE(2) cells, JESS/Western blot of lysates
# Type: cell-based
# run_conditions: SKNBE2, 24 h, SKNBE2 cells, 24 h, 1 μM; read-out: % Degradation of MycN (SKNBE2) 24 h, 1 μM

// worked examples, Dmax at 1 µM included
{"columns": ["compound", "experimental_target", "endpoint", "observed"],
 "data": [
  ["CNC[C@@H]1CCCN(c2nccc(Nc3cc(C4CC4)[nH]n3)n2)C1", "MycN (Homo sapiens)", "Dmax at 1 µM", "20 to 49%"],
  ["NC[C@H]1CCN(c2nccc(Nc3cc(C4CC4)[nH]n3)n2)C1", "MycN (Homo sapiens)", "Dmax at 1 µM", "80 to 100%"],
  ["CS(=O)(=O)CCNCC12CC(C1)N(c1nccc(Nc3cc(C4CCCC4)[nH]n3)n1)C2", "MycN (Homo sapiens)", "Dmax at 1 µM", "< 20%"],
  ["NCC12CC(C1)N(c1nccc(Nc3cc(C4CCCC4)[nH]n3)n1)C2", "MycN (Homo sapiens)", "Dmax at 1 µM", "80 to 100%"],
  ["CNC[C@@H]1CN(c2nccc(Nc3cc(C4CCCC4)[nH]n3)n2)CCO1", "MycN (Homo sapiens)", "Dmax at 1 µM", "20 to 49%"]
]}

Returns the measured Dmax at 1 µM for the input compound. Input: CN1CC2(CCCN(c3nccc(Nc4cc(C5CCCC5)[nH]n4)n3)C2)C1 20 to 49%

Recorded Dmax at 1 µM for c1cc(Nc2cc(C3CC3)[nH]n2)nc(N2C[C@H]3CNC[C@H]3C2)n1 , please? 50 to 79%

Return reported Dmax at 1 µM; argument: NC[C@@H]1CN(c2nccc(Nc3cc(C4CCCC4)[nH]n3)n2)C[C@@H]1F < 20%

---

Reported Dmax at 1 µM values for the following compounds.
# experimental_target: MycC (Homo sapiens)
# Construct: endogenous in cells; host or cells: L363
# assay_details: Degradation of MycC protein in L363 cells, JESS/Western blot of lysates
# Format: cell-based
# run_conditions: L-363, 24 h, L-363 cells, 24 h, 1 μM; read-out: % Degradation of MycC (L-363) 24 h, 1 μM

# annotated cases, reported Dmax at 1 µM shown
{"columns": ["compound", "Dmax at 1 µM"],
 "data": [
  ["CN1CC2(C1)CN(c1nccc(Nc3cc(C4CCCC4)[nH]n3)n1)C2", "20 to 49%"],
  ["c1cc(Nc2cc(C3CCCC3)[nH]n2)nc(N2CCC(C3CNC3)C2)n1 (centres unmarked)", "< 20%"],
  ["c1cc(Nc2cc(C3CC3)[nH]n2)nc(N2CCC(C3CNC3)C2)n1 (racemic)", "20 to 49%"],
  ["CNCC12CC(C1)N(c1nccc(Nc3cc(C4CC4)[nH]n3)n1)C2", "80 to 100%"]
]}

Consider the record given below.
// returns reported Dmax at 1 µM for input CN1CC(C2CCN(c3nccc(Nc4cc(C5CC5)[nH]n4)n3)C2)C1 (centres unmarked) < 20%

---

# experimental_target: MycC (Homo sapiens, UniProt P01106)
# Construct: endogenous in cells; host or cells: L363
# Sequence (P01106 whole entry): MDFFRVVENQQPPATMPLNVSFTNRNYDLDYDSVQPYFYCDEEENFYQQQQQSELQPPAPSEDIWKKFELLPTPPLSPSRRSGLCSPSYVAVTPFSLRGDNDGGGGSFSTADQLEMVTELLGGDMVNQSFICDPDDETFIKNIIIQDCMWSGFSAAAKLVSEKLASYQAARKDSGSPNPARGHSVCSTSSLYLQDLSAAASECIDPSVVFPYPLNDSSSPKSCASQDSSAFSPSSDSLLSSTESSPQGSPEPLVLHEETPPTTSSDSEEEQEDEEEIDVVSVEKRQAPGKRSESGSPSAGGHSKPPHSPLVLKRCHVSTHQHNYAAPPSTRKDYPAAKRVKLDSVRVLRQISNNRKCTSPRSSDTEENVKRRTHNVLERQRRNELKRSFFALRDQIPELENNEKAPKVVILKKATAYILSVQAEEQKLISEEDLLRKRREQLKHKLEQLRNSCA
# assay_details: Degradation of MycC protein in L363 cells, JESS/Western blot of lysates
# Format: cell-based
# run_conditions: L-363, 24 h, L-363 cells, 24 h, 3 μM; read-out: % Degradation of MycC (L-363) 24 h, 3 μM
endpoint: Dmax at 3 µM

Answered examples (3):
{"columns": ["mol", "observed"],
 "data": [
  ["CN(C)[C@H]1CCN(c2nccc(Nc3cc(C4CC4)[nH]n3)n2)C1", "20 to 49%"],
  ["c1cc(Nc2cc(C3CC3)[nH]n2)nc(N2CC(C3CNC3)C2)n1", "20 to 49%"],
  ["NC[C@H]1CN(c2nccc(Nc3cc(C4CCCC4)[nH]n3)n2)C[C@H]1F", "80 to 100%"]
]}

Give MycC (Homo sapiens, UniProt P01106) Dmax at 3 µM for CN1CC2(C1)CN(c1nccc(Nc3cc(C4CC4)[nH]n3)n1)C2 80 to 100%

Param readout = Dmax at 3 µM; param system = MycC (Homo sapiens, UniProt P01106); param query = CNCCCN(C)c1nccc(Nc2cc(C3CC3)[nH]n2)n1 ; response: value 20 to 49%

Notebook: pull reported Dmax at 3 µM for MycC (Homo sapiens, UniProt P01106), entry NC[C@H]1CCCN(c2nccc(Nc3cc(C4CCCC4)[nH]n3)n2)C1 80 to 100%

MycC (Homo sapiens, UniProt P01106) / Dmax at 3 µM / CNCC1CCN(c2nccc(Nc3cc(C4CC4)[nH]n3)n2)CC1 : value? 50 to 79%

# query: Dmax at 3 µM | item CNCC12CC(C1)N(c1nc3c(c(Nc4cc(C5CCCC5)[nH]n4)n1)CCC3)C2 | system: MycC (Homo sapiens, UniProt P01106) 80 to 100%

---

# experimental_target: MycN (Homo sapiens)
# Construct: endogenous in cells; host or cells: SK-N-BE(2)
# assay_details: Degradation of MycN protein in SK-N-BE(2) cells, JESS/Western blot of lysates
# Format: cell-based
# run_conditions: SKNBE2, 24 h, SKNBE2 cells, 24 h, 6 μM; read-out: % Degradation of MycN (SKNBE2) 24 h, 6 μM
endpoint: Dmax at 6 µM

{"columns": ["compound", "endpoint", "observed"],
 "data": [
  ["CN1CCC2(C1)CN(c1nccc(Nc3cc(C4CC4)[nH]n3)n1)C2 [Compound 26]", "Dmax at 6 µM", "50 to 79%"],
  ["CN1CC(C2CN(c3nccc(Nc4cc(C5CCCC5)[nH]n4)n3)C2)C1 [Compound 65]", "Dmax at 6 µM", "50 to 79%"]
]}

Kindly consider the entry below.
Give its Dmax at 6 µM value. Item: CN1CC2(CCN(c3nccc(Nc4cc(C5CC5)[nH]n4)n3)C2)C1 [Compound 3] 50 to 79%

---

# experimental_target: MycN (Homo sapiens)
# Construct: endogenous in cells; host or cells: SK-N-BE(2)
# assay_details: Degradation of MycN protein in SK-N-BE(2) cells, JESS/Western blot of lysates
# Assay type: cell-based
# run_conditions: SKNBE2, 24 h, SKNBE2 cells, 24 h, 1 μM; read-out: % Degradation of MycN (SKNBE2) 24 h, 1 μM
# Dmax at 1 µM per entry

Use the examples below as a reference point.
{"columns": ["molecule", "experimental_target", "Dmax at 1 µM"],
 "data": [
  ["CN1CC(C2CCN(c3nccc(Nc4cc(C5CCCC5)[nH]n4)n3)C2)C1 (centres unmarked)", "MycN (Homo sapiens)", "20 to 49%"],
  ["CS(=O)(=O)CCCNCC12CC(C1)N(c1nccc(Nc3cc(C4CCCC4)[nH]n3)n1)C2", "MycN (Homo sapiens)", "20 to 49%"],
  ["NC[C@@H]1CCCN(c2nccc(Nc3cc(C4CCCC4)[nH]n3)n2)C1", "MycN (Homo sapiens)", "50 to 79%"],
  ["CNCC12CC(C1)N(c1nccc(Nc3cc(C4CCC4)[nH]n3)n1)C2", "MycN (Homo sapiens)", "50 to 79%"],
  ["NC[C@H]1CCCN(c2nccc(Nc3cc(C4CC4)[nH]n3)n2)C1", "MycN (Homo sapiens)", "80 to 100%"],
  ["CNCC12CC(C1)N(c1nccc(Nc3cc(C4CC4)[nH]n3)n1)C2", "MycN (Homo sapiens)", "20 to 49%"],
  ["NC[C@@H]1CCN(c2nccc(Nc3cc(C4CCCC4)[nH]n3)n2)C1", "MycN (Homo sapiens)", "50 to 79%"],
  ["CN(C)C[C@@H]1CCN(c2nccc(Nc3cc(C4CC4)[nH]n3)n2)C1 (stereo in doubt)", "MycN (Homo sapiens)", "20 to 49%"],
  ["CNC(C)C1CCCN(c2nccc(Nc3cc(C4CC4)[nH]n3)n2)C1 (single isomer, unassigned)", "MycN (Homo sapiens)", "20 to 49%"],
  ["CN1CC2(CCCN(c3nccc(Nc4cc(C5CC5)[nH]n4)n3)C2)C1", "MycN (Homo sapiens)", "20 to 49%"]
]}

Item CN(C)[C@@H]1CCN(c2nccc(Nc3cc(C4CC4)[nH]n3)n2)C1 with MycN (Homo sapiens) - Dmax at 1 µM? 20 to 49%

Could you share what Dmax at 1 µM was measured for O=C1c2ccccc2C(=O)N1CC12CC(CN(c3nccc(Nc4cc(C5CC5)[nH]n4)n3)C1)C2 , tested on MycN (Homo sapiens)? 80 to 100%

Request - read-out Dmax at 1 µM | tested on MycN (Homo sapiens) | molecule CN1CC(C2CN(c3nccc(Nc4cc(C5CCCC5)[nH]n4)n3)C2)C1 < 20%

GET /values?readout=Dmax at 1 µM&system=MycN (Homo sapiens)&item= NCC1CN(c2nccc(Nc3cc(C4CCCC4)[nH]n3)n2)CC1(F)F (centres unmarked) 20 to 49%

Which measured Dmax at 1 µM belongs to NC[C@H]1CN(c2nccc(Nc3cc(C4CCCC4)[nH]n3)n2)C[C@H]1F , tested on MycN (Homo sapiens)? 20 to 49%

// fetch MycN (Homo sapiens) Dmax at 1 µM for CNCC12CCC(C1)N(c1nccc(Nc3cc(C4CC4)[nH]n3)n1)C2 (centres unmarked) 80 to 100%
